# study system: H^+,K^+-ATPase Y799A (Sus scrofa, UniProt P19156, Y800A)
# Sequence (P19156 whole entry Y800A): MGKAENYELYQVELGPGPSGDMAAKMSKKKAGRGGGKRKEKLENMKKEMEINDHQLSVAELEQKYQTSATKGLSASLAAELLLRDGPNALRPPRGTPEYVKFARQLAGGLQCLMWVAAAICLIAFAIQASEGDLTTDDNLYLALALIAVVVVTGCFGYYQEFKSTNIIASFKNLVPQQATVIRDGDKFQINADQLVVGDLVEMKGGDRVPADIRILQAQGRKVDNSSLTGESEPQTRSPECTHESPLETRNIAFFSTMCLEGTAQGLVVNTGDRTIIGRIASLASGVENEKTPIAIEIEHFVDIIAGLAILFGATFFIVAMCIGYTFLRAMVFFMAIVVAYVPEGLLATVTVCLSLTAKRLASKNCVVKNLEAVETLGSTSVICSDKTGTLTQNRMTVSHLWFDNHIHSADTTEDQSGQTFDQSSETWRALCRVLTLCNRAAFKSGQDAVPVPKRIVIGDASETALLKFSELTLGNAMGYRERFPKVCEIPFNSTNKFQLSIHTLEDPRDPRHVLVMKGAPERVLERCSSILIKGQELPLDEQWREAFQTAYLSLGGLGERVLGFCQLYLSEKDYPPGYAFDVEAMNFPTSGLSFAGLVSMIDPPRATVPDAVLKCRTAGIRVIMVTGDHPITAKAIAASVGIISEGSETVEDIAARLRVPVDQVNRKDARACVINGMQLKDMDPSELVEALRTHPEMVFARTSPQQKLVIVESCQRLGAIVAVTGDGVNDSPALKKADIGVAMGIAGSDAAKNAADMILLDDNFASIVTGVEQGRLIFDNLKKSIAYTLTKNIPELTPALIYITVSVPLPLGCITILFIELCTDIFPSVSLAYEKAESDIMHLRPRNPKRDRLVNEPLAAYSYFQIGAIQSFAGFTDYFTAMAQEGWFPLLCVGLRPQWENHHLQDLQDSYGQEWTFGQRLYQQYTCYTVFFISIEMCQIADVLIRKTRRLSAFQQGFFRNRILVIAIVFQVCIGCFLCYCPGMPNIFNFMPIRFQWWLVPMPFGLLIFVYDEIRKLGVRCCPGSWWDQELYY
# Sequence (P18434 whole entry partner): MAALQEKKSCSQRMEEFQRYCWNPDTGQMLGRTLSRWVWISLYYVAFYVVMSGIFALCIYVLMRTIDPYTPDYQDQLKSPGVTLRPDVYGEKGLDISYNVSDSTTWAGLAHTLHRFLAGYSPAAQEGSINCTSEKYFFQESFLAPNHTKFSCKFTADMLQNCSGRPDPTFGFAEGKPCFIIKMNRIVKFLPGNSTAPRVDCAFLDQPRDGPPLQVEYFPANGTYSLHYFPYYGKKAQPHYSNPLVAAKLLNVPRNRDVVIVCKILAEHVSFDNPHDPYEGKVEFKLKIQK
# measurement notes: ATPase assay, Y799A mutant
# condition summary: Y799A
measured quantity: -fold increase in K i compared with wild-type (fold)

INSERT INTO measurements (molecule, qual, test_value) VALUES
  ('Cc1cn2cccc(OCc3ccccc3)c2n1 [SCH-CN^−]', '=', 25),
  ('Cc1nc2c3c(ccn2c1C)[C@@H](O)[C@H](O)[C@@H](c1ccccc1)N3 [BYK99]', '>', 170),
  ('Cc1nc2c3c(ccn2c1C)[C@@H](O)[C@H](O)[C@@H](c1ccccc1)N3C [BYK73]', '>', 40),
  ('N#CCc1cnc2c(OCc3ccccc3)cccn12 [SCH-Me^−]', '=', 67);

The measurements presented in this section are drawn from paper PMC5529566.
